Target: Protein-glutamine gamma-glutamyltransferase (Homo sapiens, UniProt P21980)
Sequence (P21980 whole entry): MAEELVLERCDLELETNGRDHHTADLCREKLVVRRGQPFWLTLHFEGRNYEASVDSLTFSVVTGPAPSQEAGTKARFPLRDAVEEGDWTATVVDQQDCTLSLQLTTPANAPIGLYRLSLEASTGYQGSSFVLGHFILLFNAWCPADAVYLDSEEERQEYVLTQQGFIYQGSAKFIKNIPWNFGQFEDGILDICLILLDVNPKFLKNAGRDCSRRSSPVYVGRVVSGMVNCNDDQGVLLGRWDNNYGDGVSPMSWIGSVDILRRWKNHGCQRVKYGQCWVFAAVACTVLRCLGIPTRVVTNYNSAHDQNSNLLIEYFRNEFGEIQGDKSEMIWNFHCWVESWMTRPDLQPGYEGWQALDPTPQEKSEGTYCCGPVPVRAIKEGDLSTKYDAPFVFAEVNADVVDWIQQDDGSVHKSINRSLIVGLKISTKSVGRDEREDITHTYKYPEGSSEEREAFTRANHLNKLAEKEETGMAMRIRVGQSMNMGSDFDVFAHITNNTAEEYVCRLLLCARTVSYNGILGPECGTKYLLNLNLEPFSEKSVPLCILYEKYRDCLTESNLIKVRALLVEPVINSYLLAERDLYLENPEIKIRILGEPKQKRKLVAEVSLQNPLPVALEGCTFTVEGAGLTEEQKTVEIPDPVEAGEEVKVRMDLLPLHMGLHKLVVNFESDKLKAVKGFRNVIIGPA
Test: Inhibition recombinant human TG2 using N-CbzGlu(gamma-p-nitrophenylester)Gly as substrate after 10 mins
Readings of IC50 for the listed molecules

| line-notation | result-comparator | IC50 / µM |
| --- | --- | --- |
| COc1cc(/C=C/C(=O)c2cccnc2)ccc1O | = | 688 |
| O=C(/C=C/c1cccc(O)c1)c1cccnc1 | = | 266 |
| O=C(/C=C/c1ccc(O)cc1)c1cccnc1 | > | 2000 |
| O=C(/C=C/c1ccc(O)c(O)c1)c1cccnc1 | = | 1000 |
| CCOc1cc(/C=C/C(=O)c2cccnc2)ccc1O | = | 484 |

* * *

Biological target: Amyloid-beta precursor protein (Homo sapiens, UniProt P05067)
Sequence (P05067 whole entry): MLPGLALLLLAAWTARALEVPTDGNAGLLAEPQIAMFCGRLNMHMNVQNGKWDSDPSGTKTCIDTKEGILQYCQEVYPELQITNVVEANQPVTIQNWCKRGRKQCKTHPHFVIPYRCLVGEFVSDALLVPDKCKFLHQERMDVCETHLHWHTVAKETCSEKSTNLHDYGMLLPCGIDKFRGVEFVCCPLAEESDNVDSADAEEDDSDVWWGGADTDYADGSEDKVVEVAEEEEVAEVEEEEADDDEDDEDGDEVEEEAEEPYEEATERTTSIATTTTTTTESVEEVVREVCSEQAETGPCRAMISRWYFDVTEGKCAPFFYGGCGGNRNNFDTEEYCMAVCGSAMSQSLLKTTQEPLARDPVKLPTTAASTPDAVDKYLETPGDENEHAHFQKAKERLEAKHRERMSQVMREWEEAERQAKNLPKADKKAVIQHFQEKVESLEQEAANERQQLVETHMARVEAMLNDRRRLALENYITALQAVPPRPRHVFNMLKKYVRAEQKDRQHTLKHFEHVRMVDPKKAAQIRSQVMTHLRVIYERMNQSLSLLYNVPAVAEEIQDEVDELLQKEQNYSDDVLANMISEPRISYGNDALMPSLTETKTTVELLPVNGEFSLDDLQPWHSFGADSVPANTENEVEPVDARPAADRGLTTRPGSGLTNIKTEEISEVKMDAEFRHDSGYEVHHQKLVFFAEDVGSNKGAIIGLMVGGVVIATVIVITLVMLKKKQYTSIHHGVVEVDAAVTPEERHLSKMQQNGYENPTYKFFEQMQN
Assay: Inhibition of self-induced amyloid beta (1 to 42) (unknown origin) aggregation at 50 uM by thioflavin T-based fluorometric assay relative to control

| line-notation | inhibition |
| --- | --- |
| O=C(/C=C/c1cccc(O)c1)c1cccnc1 | 5.8% |
| O=C(/C=C/c1ccc(O)c(O)c1)c1cccnc1 | 91.5% |
| O=C(/C=C/c1ccc(O)cc1)c1cccnc1 | 21.5% |
| CCOc1cc(/C=C/C(=O)c2cccnc2)ccc1O | 18.8% |
| COc1cc(/C=C/C(=O)c2cccnc2)ccc1O | 17.5% |

* * *

Assay: Passive permeability of the compound at 100 uM after 6 hrs by PAMPA

| line-notation | Papp at 6 h, 100 µM, ×10⁻⁶ cm/s |
| --- | --- |
| COc1cc(/C=C/C(=O)c2cccnc2)ccc1O | 9.9 |
| O=C(/C=C/c1cccc(O)c1)c1cccnc1 | 6.5 |
| O=C(/C=C/c1ccc(O)c(O)c1)c1cccnc1 | 5.5 |

* * *

Readings of inhibition for the listed compounds
Biological target: Glycogen synthase kinase-3 beta (Homo sapiens, UniProt P49841)
Sequence (P49841 whole entry, looked up): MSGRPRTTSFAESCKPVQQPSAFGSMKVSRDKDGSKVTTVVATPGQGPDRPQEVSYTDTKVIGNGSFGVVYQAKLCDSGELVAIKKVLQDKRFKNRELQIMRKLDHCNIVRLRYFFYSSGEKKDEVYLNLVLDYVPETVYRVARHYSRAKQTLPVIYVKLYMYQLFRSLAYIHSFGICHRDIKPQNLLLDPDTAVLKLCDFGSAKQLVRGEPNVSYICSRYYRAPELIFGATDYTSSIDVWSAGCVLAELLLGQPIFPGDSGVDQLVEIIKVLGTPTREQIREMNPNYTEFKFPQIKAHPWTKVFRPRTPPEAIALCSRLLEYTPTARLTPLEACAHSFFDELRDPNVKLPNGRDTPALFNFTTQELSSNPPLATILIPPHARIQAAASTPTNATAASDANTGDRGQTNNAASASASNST
Experiment: Inhibition of GSK3beta (unknown origin) at 50 uM using GSM substrate after 30 mins by Kinase-Glo reagent based luminescence assay relative to control
endpoint-name: inhibition (%)

| line-notation | study-target | endpoint-name | u | result-value |
| --- | --- | --- | --- | --- |
| O=C(/C=C/c1ccc(O)c(O)c1)c1cccnc1 | Glycogen synthase kinase-3 beta (Homo sapiens, UniProt P49841) | inhibition | % | 100 |
| CCOc1cc(/C=C/C(=O)c2cccnc2)ccc1O | Glycogen synthase kinase-3 beta (Homo sapiens, UniProt P49841) | inhibition | % | 39.5 |
| O=C(/C=C/c1ccc(O)cc1)c1cccnc1 | Glycogen synthase kinase-3 beta (Homo sapiens, UniProt P49841) | inhibition | % | 25.2 |
| O=C(/C=C/c1cccc(O)c1)c1cccnc1 | Glycogen synthase kinase-3 beta (Homo sapiens, UniProt P49841) | inhibition | % | 43.5 |
| CCOC(=O)/C=C/c1ccc(O)c(OC)c1 | Glycogen synthase kinase-3 beta (Homo sapiens, UniProt P49841) | inhibition | % | 21.4 |
| COc1cc(/C=C/C(=O)c2cccnc2)ccc1O | Glycogen synthase kinase-3 beta (Homo sapiens, UniProt P49841) | inhibition | % | 37.2 |

* * *

Molecular target: Amyloid-beta precursor protein (Homo sapiens, UniProt P05067)
Assay: Inhibition of self-induced amyloid beta (1 to 42) (unknown origin) aggregation by thioflavin T-based fluorometric assay
pIC50: −log10 of the molar value.
endpoint-name: pIC50

| compound | result-comparator | result-value |
| --- | --- | --- |
| C=CCSC(=O)/C=C/c1ccc(O)c(O)c1 | = | 4.90 |
| O=C(/C=C/c1ccc(O)c(O)c1)c1cccnc1 | = | 5.05 |
| COc1cc(/C=C/C(=O)O)ccc1O [FERULATE] | < | 4.00 |
| O=C(O)/C=C/c1cccc(O)c1 | < | 4.00 |
